Measured pKd of individual entries
measurement_target: T1, Fusion protein of extracellular domain of human TIGIT and His-tag (human TIGIT ECD-his) (human)
T1 chain: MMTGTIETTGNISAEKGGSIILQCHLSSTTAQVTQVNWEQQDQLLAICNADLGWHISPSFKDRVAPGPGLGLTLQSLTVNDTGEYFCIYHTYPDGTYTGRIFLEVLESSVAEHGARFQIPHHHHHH
assay_name: BIAcore
pKd: −log10 of the molar value.

binder | pKd
TIGIT-070-H3L3 (antibody, V domains shown, Humanized anti-TIGIT antibody) VH: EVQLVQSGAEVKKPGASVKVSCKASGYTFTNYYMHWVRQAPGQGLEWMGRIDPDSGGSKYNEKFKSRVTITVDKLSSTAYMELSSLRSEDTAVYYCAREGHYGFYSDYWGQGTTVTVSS VL: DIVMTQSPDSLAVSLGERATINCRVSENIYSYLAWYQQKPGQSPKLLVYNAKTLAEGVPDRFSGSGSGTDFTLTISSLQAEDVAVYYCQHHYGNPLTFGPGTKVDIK | 9.94
TIGIT-070-H1L2 (antibody, V domains shown, Humanized anti-TIGIT antibody) VH: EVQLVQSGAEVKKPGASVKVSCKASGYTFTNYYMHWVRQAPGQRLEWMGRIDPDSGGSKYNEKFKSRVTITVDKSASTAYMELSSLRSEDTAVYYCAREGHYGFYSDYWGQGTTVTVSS VL: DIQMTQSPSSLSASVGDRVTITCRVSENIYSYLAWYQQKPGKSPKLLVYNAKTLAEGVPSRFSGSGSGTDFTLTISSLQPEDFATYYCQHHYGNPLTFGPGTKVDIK | 10.05
TIGIT-006-H5L3 (antibody, V domains shown, Humanized anti-TIGIT antibody) VH: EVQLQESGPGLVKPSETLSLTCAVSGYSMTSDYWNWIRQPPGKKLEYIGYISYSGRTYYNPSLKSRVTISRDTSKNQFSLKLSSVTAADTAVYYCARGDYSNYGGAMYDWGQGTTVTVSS VL: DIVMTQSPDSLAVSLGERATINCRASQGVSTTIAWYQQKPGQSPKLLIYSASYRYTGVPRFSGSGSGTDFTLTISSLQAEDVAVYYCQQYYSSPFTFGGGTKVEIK | 10.19
TIGIT-006-H1L2 (antibody, V domains shown, Humanized anti-TIGIT antibody) VH: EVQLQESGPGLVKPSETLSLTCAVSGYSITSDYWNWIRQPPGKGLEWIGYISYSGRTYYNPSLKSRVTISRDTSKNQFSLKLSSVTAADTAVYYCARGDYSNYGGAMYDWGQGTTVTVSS VL: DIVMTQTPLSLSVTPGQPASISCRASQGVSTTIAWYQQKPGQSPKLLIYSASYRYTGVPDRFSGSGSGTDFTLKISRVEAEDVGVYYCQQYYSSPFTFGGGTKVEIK | 8.24
TIGIT-070-H2L3 (antibody, V domains shown, Humanized anti-TIGIT antibody) VH: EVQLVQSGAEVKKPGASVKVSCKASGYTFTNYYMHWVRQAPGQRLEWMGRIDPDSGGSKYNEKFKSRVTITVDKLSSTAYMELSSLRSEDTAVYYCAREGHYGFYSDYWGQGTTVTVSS VL: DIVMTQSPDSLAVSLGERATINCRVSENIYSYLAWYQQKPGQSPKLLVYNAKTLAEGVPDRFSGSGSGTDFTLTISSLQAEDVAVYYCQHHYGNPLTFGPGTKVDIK | 10.12
TIGIT-002-H2L3 (antibody, V domains shown, Humanized anti-TIGIT antibody) VH: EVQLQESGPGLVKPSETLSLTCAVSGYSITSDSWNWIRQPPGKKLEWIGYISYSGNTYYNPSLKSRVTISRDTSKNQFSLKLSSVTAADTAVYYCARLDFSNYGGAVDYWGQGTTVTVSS VL: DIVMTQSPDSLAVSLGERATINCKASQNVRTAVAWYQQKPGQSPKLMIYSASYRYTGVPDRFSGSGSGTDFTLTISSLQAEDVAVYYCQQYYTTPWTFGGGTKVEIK | 9.58
TIGIT-002-H1L3 (antibody, V domains shown, Humanized anti-TIGIT antibody) VH: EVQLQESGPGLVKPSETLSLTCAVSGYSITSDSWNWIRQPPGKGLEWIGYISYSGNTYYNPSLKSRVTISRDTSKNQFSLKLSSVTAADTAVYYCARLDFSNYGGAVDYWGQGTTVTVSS VL: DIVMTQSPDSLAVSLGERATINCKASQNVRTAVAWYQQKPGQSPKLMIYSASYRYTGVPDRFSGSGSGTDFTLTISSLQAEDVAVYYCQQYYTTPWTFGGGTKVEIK | 9.57

These data points were gathered from patent US20240343803A1.
